SYSTEM_TESTED: IKZF1 (Homo sapiens, UniProt Q13422+Q96SW2)
Construct: expressed in transfected cells
Sequence (Q13422 whole entry, species assumed): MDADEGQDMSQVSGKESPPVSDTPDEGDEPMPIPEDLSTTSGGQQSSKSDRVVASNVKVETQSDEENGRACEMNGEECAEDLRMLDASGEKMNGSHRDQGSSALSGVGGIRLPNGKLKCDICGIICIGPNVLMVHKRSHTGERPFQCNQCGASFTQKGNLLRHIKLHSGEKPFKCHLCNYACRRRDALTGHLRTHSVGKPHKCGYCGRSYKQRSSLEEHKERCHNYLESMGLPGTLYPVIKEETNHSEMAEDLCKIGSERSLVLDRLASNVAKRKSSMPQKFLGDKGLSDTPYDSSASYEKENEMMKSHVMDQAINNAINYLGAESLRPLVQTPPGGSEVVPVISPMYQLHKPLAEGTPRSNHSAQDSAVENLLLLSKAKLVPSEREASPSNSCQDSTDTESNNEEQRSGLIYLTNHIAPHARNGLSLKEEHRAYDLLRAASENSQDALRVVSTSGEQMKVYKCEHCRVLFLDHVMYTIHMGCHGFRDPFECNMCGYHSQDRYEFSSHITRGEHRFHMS
Sequence (Q96SW2 whole entry, species assumed): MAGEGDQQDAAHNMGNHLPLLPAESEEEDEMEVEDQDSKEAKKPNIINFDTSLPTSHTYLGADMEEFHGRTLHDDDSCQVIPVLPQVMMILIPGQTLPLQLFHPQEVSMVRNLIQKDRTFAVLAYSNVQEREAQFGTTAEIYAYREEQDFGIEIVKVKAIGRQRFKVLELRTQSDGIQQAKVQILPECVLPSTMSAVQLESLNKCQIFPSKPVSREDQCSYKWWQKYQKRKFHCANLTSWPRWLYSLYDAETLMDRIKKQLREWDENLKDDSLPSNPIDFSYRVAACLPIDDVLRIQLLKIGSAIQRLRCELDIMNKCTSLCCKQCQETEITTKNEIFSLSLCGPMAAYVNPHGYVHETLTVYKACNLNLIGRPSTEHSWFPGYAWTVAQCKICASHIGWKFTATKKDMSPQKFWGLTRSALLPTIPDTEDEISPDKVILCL
Sequence (Q16531 whole entry partner, species assumed): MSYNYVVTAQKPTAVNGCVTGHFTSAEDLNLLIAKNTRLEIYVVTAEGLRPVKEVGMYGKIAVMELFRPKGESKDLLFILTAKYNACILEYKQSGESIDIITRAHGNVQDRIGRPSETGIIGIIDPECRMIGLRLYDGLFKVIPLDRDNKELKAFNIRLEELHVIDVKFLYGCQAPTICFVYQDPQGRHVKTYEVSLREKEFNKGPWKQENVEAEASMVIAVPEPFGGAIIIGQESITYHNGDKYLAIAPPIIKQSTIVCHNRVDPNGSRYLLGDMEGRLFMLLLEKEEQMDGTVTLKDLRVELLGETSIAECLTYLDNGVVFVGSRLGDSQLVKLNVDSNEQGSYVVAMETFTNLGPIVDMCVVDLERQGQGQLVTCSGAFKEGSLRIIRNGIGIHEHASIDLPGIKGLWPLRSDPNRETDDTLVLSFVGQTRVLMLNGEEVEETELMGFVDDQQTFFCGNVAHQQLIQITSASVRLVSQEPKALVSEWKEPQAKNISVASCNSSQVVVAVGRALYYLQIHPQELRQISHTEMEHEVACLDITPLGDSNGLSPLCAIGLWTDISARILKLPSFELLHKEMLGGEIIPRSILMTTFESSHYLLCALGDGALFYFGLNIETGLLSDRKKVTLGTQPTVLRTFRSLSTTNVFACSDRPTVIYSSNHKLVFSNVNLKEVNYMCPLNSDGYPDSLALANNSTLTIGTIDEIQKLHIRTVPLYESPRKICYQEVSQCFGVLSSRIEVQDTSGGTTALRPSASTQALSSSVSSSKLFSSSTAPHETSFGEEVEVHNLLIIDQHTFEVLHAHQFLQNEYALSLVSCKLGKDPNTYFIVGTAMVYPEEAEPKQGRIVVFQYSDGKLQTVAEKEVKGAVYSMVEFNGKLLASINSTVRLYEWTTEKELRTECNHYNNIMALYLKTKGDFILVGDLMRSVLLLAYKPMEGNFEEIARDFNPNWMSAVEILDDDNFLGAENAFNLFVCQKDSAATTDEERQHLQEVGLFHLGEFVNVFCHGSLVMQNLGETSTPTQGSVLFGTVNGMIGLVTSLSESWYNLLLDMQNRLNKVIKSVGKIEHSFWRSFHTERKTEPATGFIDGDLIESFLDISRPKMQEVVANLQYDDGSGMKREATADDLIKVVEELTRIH
MEASUREMENT_NOTES: Prolabel quantification of IKZF1 protein levels in GripTite 293 MSR cell line
Type: cell-based
CONDITION_NOTES: 10 μM, 24 h, Pro-label assay
MEASURED_PARAMETER: percent IKZF1 protein reduction at 10 µM (%)

COMPOUND	SYSTEM_TESTED	percent IKZF1 protein reduction at 10 µM / %
O=C1CCN(c2coc3ccc(NC(=O)Oc4ccccc4)cc23)C(=O)N1 [Compound I-6]	IKZF1 (Homo sapiens, UniProt Q13422+Q96SW2)	75
Cc1ccc(CCOc2ccc3c(N4CCC(=O)NC4=O)noc3c2)cc1 [Compound I-15]	IKZF1 (Homo sapiens, UniProt Q13422+Q96SW2)	80

a: O=C1CCN(c2coc3ccc(I)cc23)C(=O)N1 [Compound I-4]
b: O=c1ccn(-c2cnc3cc(Br)ccn23)c(=O)[nH]1 [Compound I-18]
INPUT: In terms of reported percent IKZF1 protein reduction at 10 µM, does a or b have the smaller number? Lab log: write the label of the selected item as the result.
OUTPUT: b
(b: 40%, a: 60%)

---

SYSTEM_TESTED: IKZF1 (Homo sapiens, UniProt Q13422+Q96SW2)
Construct: expressed in transfected cells
MEASUREMENT_NOTES: Prolabel quantification of IKZF1 protein levels in GripTite 293 MSR cell line
Type: cell-based
CONDITION_NOTES: Ikaros degradation, Pro-label assay, read-out: IKZF1 EC50
Protocol: Example 18: Prolabel Quantification of IKZF1, GSPT1, or SALL4 protein levels in GripTite™ 293 MSR Cell line The Prolabel system from DiscoverX was used to develop high-throughput and quantitative assays to measure changes in IKZF1, GSPT1, and SALL4 protein levels in response to compounds. […] The complementary fragment of beta-galactosidase (from DiscoverX), is added to the prolabel tag to form an active beta galactosidase enzyme whose activity can be precisely measured. […]
MEASURED_PARAMETER: DC50 (nM)

MOLECULE	MEASURED_PARAMETER	EXPERIMENTAL_VALUE
Cc1ccc2c(N3CCC(=O)NC3=O)noc2c1 [Compound I-13]	DC50	6

P: O=C1CCN(c2cnn3cc(Cl)ccc23)C(=O)N1 [Compound I-7]
Q: O=C1CCN(c2coc3ccc(I)cc23)C(=O)N1 [Compound I-4]
INPUT: P or Q : whose DC50 is greater? Lab log: write the label of the selected item as the result.
OUTPUT: Q

---

SYSTEM_TESTED: IKZF1 (Homo sapiens, UniProt Q13422+Q96SW2)
Construct: expressed in transfected cells
MEASUREMENT_NOTES: Prolabel quantification of IKZF1 protein levels in GripTite 293 MSR cell line
Assay type: cell-based
CONDITION_NOTES: 10 μM, 24 h, Pro-label assay
Below, each entry is listed with its recorded percent IKZF1 protein reduction at 10 µM.

# count of solved cases: 5
O=C1CCN(c2coc3cc(I)ccc23)C(=O)N1 > 90%
C#Cc1ccc2c(N3CCC(=O)NC3=O)coc2c1 > 90%
O=c1ccn(-c2cnc3cc(C4=CCN(Cc5ccccc5)CC4)ccn23)c(=O)[nH]1 80%
Cc1ccc2occ(N3CCC(=O)NC3=O)c2c1 > 90%
O=C1CCN(c2coc3ccccc23)C(=O)N1 75%

INPUT: Provide percent IKZF1 protein reduction at 10 µM, tested on IKZF1 (Homo sapiens, UniProt Q13422+Q96SW2), for `O=C1CCN(c2noc3ccc(Cl)cc23)C(=O)N1` .
OUTPUT: > 90%

INPUT: Provide percent IKZF1 protein reduction at 10 µM, tested on IKZF1 (Homo sapiens, UniProt Q13422+Q96SW2), for `Cc1ccc2c(N3CCC(=O)NC3=O)noc2c1` .
OUTPUT: > 90%

INPUT: Provide percent IKZF1 protein reduction at 10 µM, tested on IKZF1 (Homo sapiens, UniProt Q13422+Q96SW2), for `O=C1CCN(c2cnc3cc(C4=CCN(Cc5ccccc5)CC4)ccn23)C(=O)N1` .
OUTPUT: > 90%

INPUT: Provide percent IKZF1 protein reduction at 10 µM, tested on IKZF1 (Homo sapiens, UniProt Q13422+Q96SW2), for `O=C1CCN(c2cnn3cc(Cl)ccc23)C(=O)N1` .
OUTPUT: > 90%

INPUT: Provide percent IKZF1 protein reduction at 10 µM, tested on IKZF1 (Homo sapiens, UniProt Q13422+Q96SW2), for `CN(C)CC#Cc1ccc2c(N3CCC(=O)NC3=O)coc2c1` .
OUTPUT: > 90%
